Assay: Redox potential (redox potentiometry)
Format: physicochemical
Details: compared with hydrogen (set at 0)
Description: The ability of quinone compounds to accept electrons from another substance (i.e., be reduced) may be quantified using a technique known as redox potentiometry. Redox potentiometry is a technique that measures (in volts) the affinity of a substance for electrons—its electronegativity—compared with hydrogen (which is set at 0). Substances more strongly electronegative than (i.e., capable of oxidizing) hydrogen have positive redox potentials. […]
endpoint-name: redox potential (mV)
Could you give me the number in mV? Just the number is fine.

The following molecules have reported results that may help.
O=C1c2ccc(S(=O)(=O)O)cc2C(=O)c2cc(S(=O)(=O)O)ccc21 [2,7-disulfonic acid anthraquinone] :: −313
Nc1c(S(=O)(=O)[O-])cc(Nc2ccccc2)c2c1C(=O)c1ccccc1C2=O.[Na+] [Acid Blue 25] :: −605
O=C1c2ccccc2C(=O)c2cc(S(=O)(=O)O)ccc21 [2-sulfonic acid anthraquinone] :: −380
O=C1c2ccc(S(=O)(=O)O)cc2C(=O)c2ccc(S(=O)(=O)O)cc21 [2,6-disulfonic acid anthraquinone] :: −325

Moving on to the next molecule.
Input: Recorded redox potential of O=C1C=C(S(=O)(=O)O)C(=O)c2ccccc21 [2-sulfonic acid naphthaquinone] , please.
Output: −60
